Experiment: NCI Yeast Anticancer Drug Screen. Data for the mec2-1 strain (AID 157)
Settings: S. cerevisiae mec2-1 strain, at 50.0 µM, hits give high values
About 79,000 compounds went through this panel and 15% of them were active in at least one assay; those are over-represented in the sample as a whole.
measurementLabel: growth inhibition (%)
Write it as a number; the unit % goes unstated.

compound	growth inhibition (%)
O=C(Cl)c1c(F)c(F)c(F)c(F)c1F	-26.1
CCOC(=O)/C(C#N)=C/Nc1[nH]c(=O)c(C#N)c(-c2ccc(Cl)cc2)c1SC	5.8
Oc1ccc(O)c(CCCCCc2cc(O)ccc2O)c1	37.4

*Q* Item under review: O=C(NC1C2CC3CC(C2)CC1C3)c1cc(/C=C/c2ccccc2)[nH]c(=S)n1 (stereo not given) . Reported growth inhibition?
*A* 2.35

*Q* Recorded growth inhibition for CC(=O)Nc1ccc(/C=C(\NC(=O)c2ccccc2)C(=O)NNS(=O)(=O)c2ccc(C)cc2)cc1 , please?
*A* 17.7

* * *

// reported growth inhibition per item
Test: NCI Yeast Anticancer Drug Screen. Data for the bub3 strain (AID 167)
Details: S. cerevisiae bub3 mutant strain, at 50.0 µM, hits give high values
The panel holds about 79,000 compounds, 15% with a hit somewhere; the sample as a whole holds those more often.
I only need the number, in %, no unit after it.

Please review the following examples before continuing.
compound	unitsSymbol	numericResult
O=C(O)c1cc(=O)[nH]c2ccccc12	%	1.7
O=[N+]([O-])c1ccc(/C=N\N=C\c2ccco2)cc1	%	-9.9
O=S(=O)(c1ccccc1)c1ccccn1	%	3.7
COC(=O)C1C2C=CC(O2)C1C(=O)OC (configuration not stated)	%	14.1
Nc1nc(N)c(N)c(Nc2ccc(Cl)cc2)n1	%	-1.95

*Q* Endpoint output: growth inhibition of COc1ccc(-c2cc(=O)c3cccnc3[nH]2)cc1 . Value?
*A* 12.2

*Q* Reported growth inhibition for Nc1nc2c(C(=O)N3CCCC3)nnn2c2cccc(Cl)c12 : what is it?
*A* 9.9

* * *

Test: NCI Yeast Anticancer Drug Screen. Data for the sgs1 mgt1 strain (AID 161);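 also: 0% = growth of cultures given vehicle only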
Settings: S. cerevisiae sgs1 mgt1 strain, at 50.0 µM, hits give high values
About 79,000 compounds went through this panel and 15% of them were active in at least one assay; those are over-represented in the sample as a whole.
measurementLabel: growth inhibition (%)
Please give a number only; it is taken to be in %.

Consider the following illustrative entries.
compound	measurementLabel	numericResult
CCOC1C(Br)Cn2c(=O)c3cc4ccccc4cc3c(=O)n2C1C (stereo unspecified)	growth inhibition	21.6
COc1ccc([C@@]23Oc4cc(OC)cc(OC)c4[C@]2(O)[C@H](O)[C@H](C(=O)N(C)C)[C@H]3c2ccccc2)cc1	growth inhibition	92.8

Next compound, please.
*Q* Sample CCCCCCCCCCCCCCCCc1c(C(=O)OC)nc(NN)[nH]c1=O — what was its growth inhibition?
*A* -26.5

* * *

growth inhibition listing for selected molecules.
Test: NCI Yeast Anticancer Drug Screen. Data for the bub3 strain (AID 167)
Settings: S. cerevisiae bub3 mutant strain, at 50.0 µM, hits give high values
Compounds without any hit were thinned out: in the full panel of roughly 79,000, 15% have a hit.
Unit % implied. Number only.

Some solved cases for reference:
molecule	growth inhibition [%]
Clc1cc2ncn(C3CCCO3)c2cc1Cl (stereo unspecified)	49
COc1ccc(CCCN2c3ccccc3Sc3ccccc32)cc1	-19.9
O=C(Cc1ccccc1)N/N=C(/c1nc2ccc([N+](=O)[O-])cc2[nH]c1=O)C(O)c1ccco1 (stereo unspecified)	-6.25
NC(=O)NC(NC(=O)NC(NC(N)=O)c1ccco1)c1ccco1 (stereo unspecified)	2.05
CCCCCCCCCCCCSCCO	17.1
Cc1cnc(NCCCCNc2ncc(C)c(-c3ccccc3O)n2)nc1-c1ccccc1O	-3.65

*Q* Endpoint output: growth inhibition of CC1CCCC(C)(c2ccccc2)/C1=N\Nc1ccc([N+](=O)[O-])cc1[N+](=O)[O-] (stereo unspecified) . Value?
*A* 2.1

*Q* Which growth inhibition value is on record for Cc1cc(N)c(NC2OC(CO)C(O)C2O)cc1C (stereo unspecified) ?
*A* 41.1

*Q* Recorded growth inhibition of COc1ccc2c(c1)CCCN1CCc3cc(OC)c(OC)cc3C21 (stereo unspecified) , please.
*A* 4.5

*Q* Fill in the blank: the reported growth inhibition of CC(C)(C)CC(C)(C)c1cc2c(O)c(c1)Cc1cc(C(C)(C)CC(C)(C)C)cc(c1O)Cc1cc(C(C)(C)CC(C)(C)C)cc(c1O)Cc1cc(C(C)(C)CC(C)(C)C)cc(c1O)Cc1cc(C(C)(C)CC(C)(C)C)cc(c1O)Cc1cc(C(C)(C)CC(C)(C)C)cc(c1O)C2 is ____.
*A* 4.95

*Q* Fill in the blank: the reported growth inhibition of CC(=O)NNc1nc(C)c(C(/C=C/c2ccccc2O)=N/NC(=O)c2ccncc2)s1 is ____.
*A* 17.5

* * *

Assay: NCI Yeast Anticancer Drug Screen. Data for the sgs1 mgt1 strain (AID 161);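 also: 0% = growth of cultures given vehicle only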
Conditions: S. cerevisiae sgs1 mgt1 strain, at 50.0 µM, hits give high values
Compounds without any hit were thinned out: in the full panel of roughly 79,000, 15% have a hit. Where a SMILES comes first, the peptide text is derived from it. The star is where a group is joined. ONp = O=[N+]([O-])c1ccc(O*)cc1; Cbz = O=C(OCc1ccccc1)*; OBn = c1ccc(CO*)cc1
measurementLabel: growth inhibition (%)
Reply with just the number (in %).

Reference set, count: 5
compound	growth inhibition, %
O=C(CNC(=O)C(CCC(=O)OCc1ccccc1)NC(=O)OCc1ccccc1)NCC(=O)NC(CO)C(=O)NCC(=O)Oc1ccc([N+](=O)[O-])cc1 (stereo not drawn) (Cbz-E(OBn)GGSG-ONp; configuration not given here)	21.4
CC(C)(CO)NCC(O)CS(=O)(=O)O (stereo not drawn)	-9
CCN(CC)c1ccc2c(C)cc(=O)oc2c1	6.35
CCOC(C)=C(C#N)C#N	8.95
COc1ccc(NC(=O)c2oc3cc(O)ccc3c(=O)c2C)c([N+](=O)[O-])c1	11.5

*Q* Look up growth inhibition: CC/C(C)=N/C(=O)NN
*A* -16.2

*Q* Name the recorded growth inhibition for O=c1[nH]c2cc(Cl)ccc2nc1/C(=N\O)C(O)c1cccc([N+](=O)[O-])c1 (stereo not drawn) .
*A* -7.75

*Q* Give its growth inhibition value. Item: CCN(Cc1ccc(CN(CC)C(=O)c2c(-c3ccccc3)noc2C)cc1)C(=O)c1c(-c2ccccc2)noc1C
*A* 5.1

*Q* What does the data say about its growth inhibition? Entry: CCCC(=O)OCC(C)(C)COC(=O)CCC
*A* 10.9

*Q* // lookup growth inhibition for CCC(Nc1nncs1)Nc1nncs1
*A* 2.2

* * *

Assay: NCI Yeast Anticancer Drug Screen. Data for the mec2-1 strain (AID 157)
Settings: S. cerevisiae mec2-1 strain, at 50.0 µM, hits give high values
About 79,000 compounds went through this panel and 15% of them were active in at least one assay; those are over-represented in the sample as a whole.
measurementLabel: growth inhibition (%)
Provide the reading as a plain figure in %.

molecule	numericResult
O=Cc1cccc2[nH]ccc12	-7.95

*Q* // growth inhibition lookup, key: N#Cc1cc(C#N)c(N)nc1N
*A* 6.35

*Q* So what's the measured growth inhibition for this one? COc1ccc(C2Cc3cc(OC)c(OC)cc3C(c3ccccc3)N2)cc1OC (stereo unspecified)
*A* 18.7

* * *

Here, each record is paired with measured growth inhibition data.
Test: NCI Yeast Anticancer Drug Screen. Data for the mlh1 rad18 strain (AID 175)
Conditions: S. cerevisiae mlh1 rad18 strain growth inhibition; at 50.0 µM; hits give high values
This is part of a sample that, as a whole, favours compounds with a hit. Of some 79,000 tested, about 15% had one in any assay.
The answer is to be given in %; state only the numeric part.

compound	numericResult
COC(=O)[C@]1(C)CCC[C@@]2(C)[C@H]1CC=C1C=C(C(C)C)CC[C@@H]12	24.4
Nc1cc(N)nc(S(=O)O)n1	35.9
CCCCCCCCCCCO/N=C\c1c2c(O)c3c(O)c(C)c4c(c3c1O)C(=O)C(C)(O/C=C\C(OC)C(C)C(OC(C)=O)C(C)C(O)C(C)C(O)C(C)/C=C\C=C(\C)C(=O)N2)O4 (stereo not given)	26.2
COc1ccc(C2c3cc4c(cc3OC(C)(OC)C2C)OCO4)c(OC)c1 (stereo not given)	21
CCCC(CNC(C)=O)(c1ccccc1)C1CCCCC1 (stereo not given)	16.1

*Q* Find the recorded growth inhibition belonging to COC(=O)c1ccc(/C=C2\Oc3ccccc3C2=O)cc1 and report it.
*A* -44.5

*Q* Which growth inhibition value belongs to CC1C(O)CC23COC(=O)C2=CCCC3C1(C)CCC1COC(=O)C1 (stereo not given) ?
*A* 7.45

*Q* Dear colleague, I am looking for the recorded growth inhibition of the following compound: CC(=O)SC12CCCN1C(=O)C1(SC(C)=O)CCCN1C2=O (stereo not given)
*A* 37

*Q* Can you look up the measured growth inhibition of COc1cccc(CCN(CCOC(N)=O)CCOC(N)=O)c1OC for me?
*A* -2.65

*Q* Return reported growth inhibition; argument: CCOC(=O)NC(=O)c1cn(CCCOC(=O)CCCCCCCCC(=O)OCCCn2cc(C(=O)NC(=O)OCC)c(=O)n(C)c2=O)c(=O)n(C)c1=O
*A* -23.7
